tested on: PC3; assay: Proliferation / IC50 by trypan blue cell counts, PC3; format: cell-based, human; conditions: Homo sapiens, PC-3, 192 h, PC3, 8 days, 10 μM MTA
pIC50: −log10 of the molar value.

compound	pIC50
CSC[C@H]1CN(Cc2c[nH]c3c(N)ncnc23)C[C@@H]1O [MTDIA]	4.00

###

system: DU145; assay: Proliferation / IC50 by trypan blue cell counts, DU145; type: cell-based, human; details: Homo sapiens, DU-145, 96 h, DU145, 4 days, 20 μM MTA

compound	IC50
CSC[C@H]1CN(Cc2c[nH]c3c(N)ncnc23)C[C@@H]1O [MTDIA]	> 1 mM
